Each item that follows carries a reported pIC50.
Test system: OVCAR-5 complex spheroids with HUVEC/MSC, viability, % test/control
Experiment: Anticancer human tumor OVCAR-5 cell line growth inhibition [AhR];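 further: spheroids exposed to compounds for 7 days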
Details: curve of first compound; second compound 0.316 µM
pIC50: −log10 of the molar value.

Examples from the recorded data:
{"columns": ["Compound", "Target system", "pIC50"],
 "data": [
  ["CC[C@@]1(O)C(=O)OCc2c1cc1n(c2=O)Cc2cc3c(CN(C)C)c(O)ccc3nc2-1 + Cc1cncc(-c2nc(NCCc3c[nH]c4ccccc34)c3ncn(C(C)C)c3n2)c1", "OVCAR-5 complex spheroids with HUVEC/MSC, viability, % test/control", "< 7.00"],
  ["CC(C)c1c(-c2ccccc2)nc2c(C#N)c[nH]n2c1=O + Cc1ccccc1N=Nc1ccc(NC(=O)c2ccnn2C)c(C)c1", "OVCAR-5 complex spheroids with HUVEC/MSC, viability, % test/control", "< 5.00"]
]}

Then there is this compound:
*Q* Record request: pIC50 value, item CC1(C)CCC(CN2CCN(c3ccc(C(=O)NS(=O)(=O)c4ccc(NCC5CCOCC5)c([N+](=O)[O-])c4)c(Oc4cnc5[nH]ccc5c4)c3)CC2)=C(c2ccc(Cl)cc2)C1 + Cc1cncc(-c2nc(NCCc3c[nH]c4ccccc34)c3ncn(C(C)C)c3n2)c1
*A* < 5.00

###

System: OVCAR-5 complex spheroids with HUVEC/MSC, viability, % test/control
Experiment: Anticancer human tumor OVCAR-5 cell line growth inhibition [AhR];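 further: spheroids exposed to compounds for 7 days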;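 on viability, T/C: 100% = DMSO vehicle control wells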
Conditions: second compound 3.16 µM; first compound 0.0316 µM; stronger effect = lower value
Readout label: viability, T/C (%)
Form entry: value (%) — number only.

{"columns": ["Compound", "Target system", "Assay result"],
 "data": [
  ["CC1COCCN1c1cc(-c2ccnn2C)c2ccnc(-c3ccn[nH]3)c2n1 (centres undefined) + Cc1ccccc1N=Nc1ccc(NC(=O)c2ccnn2C)c(C)c1", "OVCAR-5 complex spheroids with HUVEC/MSC, viability, % test/control", 105],
  ["CC1(C)CCC(CN2CCN(c3ccc(C(=O)NS(=O)(=O)c4ccc(NCC5CCOCC5)c([N+](=O)[O-])c4)c(Oc4cnc5[nH]ccc5c4)c3)CC2)=C(c2ccc(Cl)cc2)C1 + Cc1cncc(-c2nc(NCCc3c[nH]c4ccccc34)c3ncn(C(C)C)c3n2)c1", "OVCAR-5 complex spheroids with HUVEC/MSC, viability, % test/control", 81.5],
  ["CC1(C)CCC(CN2CCN(c3ccc(C(=O)NS(=O)(=O)c4ccc(NCC5CCOCC5)c([N+](=O)[O-])c4)c(Oc4cnc5[nH]ccc5c4)c3)CC2)=C(c2ccc(Cl)cc2)C1 + Cc1ccccc1N=Nc1ccc(NC(=O)c2ccnn2C)c(C)c1", "OVCAR-5 complex spheroids with HUVEC/MSC, viability, % test/control", 103]
]}

*Q* Param item = CC(C)c1c(-c2ccccc2)nc2c(C#N)c[nH]n2c1=O + CC(CO)NC(=O)c1cc(-c2ccc(Cl)cc2)nn(-c2cnn(C)c2)c1=O ; retrieve measured viability, T/C.
*A* 99

###

System: OVCAR-5 complex spheroids with HUVEC/MSC, viability, % test/control
Assay: Anticancer human tumor OVCAR-5 cell line growth inhibition [AhR];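 further: spheroids exposed to compounds for 7 days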
Conditions: curve of first compound; second compound 1 µM
Readout label: IC50

{"columns": ["Compound", "IC50"],
 "data": [
  ["Nc1ccccc1NC(=O)c1ccc(CNC(=O)OCc2cccnc2)cc1 + Cc1cncc(-c2nc(NCCc3c[nH]c4ccccc34)c3ncn(C(C)C)c3n2)c1", "724 nM"],
  ["Nc1ncn(C2CC(O)C(CO)O2)c(=O)n1 (configuration not stated) + Cc1ccccc1N=Nc1ccc(NC(=O)c2ccnn2C)c(C)c1", "> 1000 nM"],
  ["CC[C@@]1(O)C(=O)OCc2c1cc1n(c2=O)Cc2cc3c(CN(C)C)c(O)ccc3nc2-1 + Cc1cncc(-c2nc(NCCc3c[nH]c4ccccc34)c3ncn(C(C)C)c3n2)c1", "> 100 nM"]
]}

*Q* Item under review: Cn1ncnc1C1c2n[nH]c(=O)c3cc(F)cc(c23)NC1c1ccc(F)cc1 (configuration not stated) + Cc1cncc(-c2nc(NCCc3c[nH]c4ccccc34)c3ncn(C(C)C)c3n2)c1 . Reported IC50?
*A* > 100 nM

*Q* Try the compound Nc1ccccc1NC(=O)c1ccc(CNC(=O)OCc2cccnc2)cc1 + Cc1ccccc1N=Nc1ccc(NC(=O)c2ccnn2C)c(C)c1
*A* 856 nM

*Q* Next compound up: CC1COCCN1c1cc(C2(S(C)(=N)=O)CC2)nc(-c2ccnc3[nH]ccc23)n1 (configuration not stated) + CC(CO)NC(=O)c1cc(-c2ccc(Cl)cc2)nn(-c2cnn(C)c2)c1=O
*A* > 10000 nM

*Q* Next up: Cn1ncnc1C1c2n[nH]c(=O)c3cc(F)cc(c23)NC1c1ccc(F)cc1 (configuration not stated) + CC(CO)NC(=O)c1cc(-c2ccc(Cl)cc2)nn(-c2cnn(C)c2)c1=O
*A* > 100 nM

*Q* Follow-up entry: COc1ccc([C@@H](O)c2cc(-c3ncnc4cc(N5CCOCC5)ccc34)c(F)cc2Cl)nn1 + CC(CO)NC(=O)c1cc(-c2ccc(Cl)cc2)nn(-c2cnn(C)c2)c1=O
*A* 3610 nM

*Q* Next compound: CC[C@@]1(O)C(=O)OCc2c1cc1n(c2=O)Cc2cc3c(CN(C)C)c(O)ccc3nc2-1 + CC(CO)NC(=O)c1cc(-c2ccc(Cl)cc2)nn(-c2cnn(C)c2)c1=O
*A* > 100 nM

*Q* Item: Nc1ccn(C2OC(CO)C(O)C2(F)F)c(=O)n1 (configuration not stated) + Cc1ccccc1N=Nc1ccc(NC(=O)c2ccnn2C)c(C)c1
*A* < 31.6 nM

*Q* Continue with Nc1ncn(C2CC(O)C(CO)S2)c(=O)n1 (configuration not stated) + Cc1ccccc1N=Nc1ccc(NC(=O)c2ccnn2C)c(C)c1
*A* > 300 nM

*Q* What about this compound? CCN(c1cc(-c2ccc(CN3CCOCC3)cc2)cc(C(=O)NCc2c(C)cc(C)[nH]c2=O)c1C)C1CCOCC1 + Cc1cncc(-c2nc(NCCc3c[nH]c4ccccc34)c3ncn(C(C)C)c3n2)c1
*A* > 3000 nM
